ΔTm at 10 µM values for the compounds below.
Target: ZmDRIK1 (DROUGHT RESPONSIVE INACTIVE KINASE 1), kinase domain (Zea mays, UniProt C0P4K9)
Construct: gene ZEAMMB73_Zm00001d028770; ZmDRIK1-KD R187-S514 (kinase domain)
Sequence (C0P4K9 187-514): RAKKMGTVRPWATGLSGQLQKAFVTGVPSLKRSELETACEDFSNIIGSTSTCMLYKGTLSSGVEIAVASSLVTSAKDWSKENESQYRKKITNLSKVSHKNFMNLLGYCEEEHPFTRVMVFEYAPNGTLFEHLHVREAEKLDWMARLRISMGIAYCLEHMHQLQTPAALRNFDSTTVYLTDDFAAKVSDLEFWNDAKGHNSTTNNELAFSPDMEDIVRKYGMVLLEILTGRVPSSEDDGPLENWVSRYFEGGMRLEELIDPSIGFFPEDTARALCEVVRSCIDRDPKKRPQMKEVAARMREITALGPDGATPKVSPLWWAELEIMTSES
Assay: biochemical
Settings: read-out: dTm B, sheet ZmDRIK1-R187-S514;; DSF, Boltzmann fit, 0.1% DMSO
Numeric only. Scale: °C

Solved cases (3 shown):
compound: CN(C)Cc1cccc(N/C(=C2\C(=O)Nc3cc(C(N)=O)ccc32)c2ccccc2)c1 [BIX 02188]
system: ZmDRIK1 (DROUGHT RESPONSIVE INACTIVE KINASE 1), kinase domain (Zea mays, UniProt C0P4K9)
readoutName: ΔTm at 10 µM
numericResult: -0.816
//
compound: Cn1cc(-c2ccc3nnc(C(F)(F)c4ccc5ncccc5c4)n3n2)cn1 [JNJ-38877605]
system: ZmDRIK1 (DROUGHT RESPONSIVE INACTIVE KINASE 1), kinase domain (Zea mays, UniProt C0P4K9)
readoutName: ΔTm at 10 µM
numericResult: -0.758
//
compound: O=C(Nc1cc(C(F)(F)F)cc(C(F)(F)F)c1)c1cc(Cl)ccc1O [IMD 0354]
system: ZmDRIK1 (DROUGHT RESPONSIVE INACTIVE KINASE 1), kinase domain (Zea mays, UniProt C0P4K9)
readoutName: ΔTm at 10 µM
numericResult: -0.239

Readout ΔTm at 10 µM for CCN1CCN(C(=O)Cc2ccc(Nc3ncc(F)c(Nc4ccc(C(=O)Nc5ccccc5Cl)cc4)n3)cc2)CC1 [Aurora A Inhibitor I] , test system ZmDRIK1 (DROUGHT RESPONSIVE INACTIVE KINASE 1), kinase domain (Zea mays, UniProt C0P4K9), was -0.616

----------
Molecular target: ZmDRIK1-K217-P492 (Zea mays)
Construct: kinase domain, K217-P492
Assay: biochemical
Details: read-out: dTm B, sheet ZmDRIK1-K217-P492;; DSF, Boltzmann fit, 0.1% DMSO
Structures can show the parent of a compound that is named as a salt.
ΔTm at 10 µM values for the compounds below.
Numeric only. Scale: °C

Solved cases (5 shown):
compound: COc1ccc(S(=O)(=O)N(CCO)c2ccccc2CN(C)C/C=C/c2ccc(Cl)cc2)cc1 [KN-93 Phosphate]
displayUnit: °C
ΔTm at 10 µM: -4.4
//
compound: CNC(=O)c1ccc(C)c(-n2c(C)cc(OCc3ccc(F)cc3F)c(Br)c2=O)c1
displayUnit: °C
ΔTm at 10 µM: -0.248
//
compound: CC(C)(C)n1nc(-c2ccc(Cl)cc2)c2c(N)ncnc21
displayUnit: °C
ΔTm at 10 µM: -1.25
//
compound: CN(C)Cc1cccc(N=C(c2ccccc2)c2c(O)[nH]c3cc(C(=O)N(C)C)ccc23)c1
displayUnit: °C
ΔTm at 10 µM: 0.0556
//
compound: NC1(Cc2ccc(Cl)cc2)CCN(c2ncnc3[nH]ccc23)CC1
displayUnit: °C
ΔTm at 10 µM: -1.15

Record O=S(=O)(c1cccc2cnccc12)N1CCCNCC1 [Fasudil (HA-1077) HCl] . Reported ΔTm at 10 µM: -0.949

Record `Nc1nc(Nc2ccc(S(N)(=O)=O)cc2)nn1C(=O)c1c(F)cccc1F` . Reported ΔTm at 10 µM: -0.924

Record `COc1ccc(CNC(=O)Nc2ncc([N+](=O)[O-])s2)cc1` . Reported ΔTm at 10 µM: -0.984

Record `COc1cc2nccc(Oc3ccc(NC(=O)Nc4cc(C)on4)c(Cl)c3)c2cc1OC` . Reported ΔTm at 10 µM: -3.26

Record `Nc1nccc(Oc2ccc(NC(=O)c3c[nH]cc(-c4ccc(F)cc4)c3=O)cc2F)c1Cl` . Reported ΔTm at 10 µM: -0.717

Record `Cc1ccc([N+](=O)[O-])cc1S(=O)(=O)N(C)/N=C/c1cnc2ccc(Br)cn12` . Reported ΔTm at 10 µM: -1.46

Record `C=CC(=O)Nc1cccc(Nc2nc(Nc3ccc(NC4CN(CCF)C4)cc3OC)ncc2C(F)(F)F)c1` . Reported ΔTm at 10 µM: -1.15

Record `COCC(=O)NC/C=C/c1ccc2ncnc(Nc3ccc(Oc4ccc(C)nc4)c(C)c3)c2c1` . Reported ΔTm at 10 µM: -1.14

Record CS(=O)(=O)CCNCc1ccc(-c2ccc3ncnc(Nc4ccc(OCc5cccc(F)c5)c(Cl)c4)c3c2)o1 [Lapatinib (GW-572016) Ditosylate] . Reported ΔTm at 10 µM: -0.876

Record `CN1CCN(c2cccc(Nc3nc4c(-c5ccc(S(C)(=O)=O)cc5)cccn4n3)c2)CC1` . Reported ΔTm at 10 µM: -0.95

----------
Target: ZmDRIK1-R187-P492 (Zea mays)
Construct: kinase domain, R187-P492
Test: biochemical
Details: read-out: dTm B, DSF, Boltzmann fit, 0.1% DMSO
Structures can show the parent of a compound that is named as a salt.
The label condition met is reserved for ΔTm at 10 µM strictly under -0.3 °C; condition not met covers values equal to or above it.

compound: CNC(=O)c1cc(COc2nnc(Nc3ccc(Cl)cc3)c3ccoc23)ccn1 [Telatinib]
answerLabel: condition not met

compound: CC(=O)c1c(C)c2cnc(Nc3ccc(N4CCNCC4)cn3)nc2n(C2CCCC2)c1=O [Palbociclib (PD-0332991) HCl]
answerLabel: condition not met

compound: Nc1ncnc2c1c(-c1cccc(OCc3ccccc3)c1)cn2C1CC(CN2CCCC2)C1 (stereo in doubt) [NVP-ADW742]
answerLabel: condition not met

compound: N#CC(C#N)=Cc1ccc(O)c(O)c1 [AG-18]
answerLabel: condition met

Given COc1cc2nccc(Oc3ccc(NC(=O)NC4CC4)c(Cl)c3)c2cc1C(N)=O [Lenvatinib (E7080)] , is recorded ΔTm at 10 µM strictly lower than -0.3 °C?
condition met

Given CCC[C@H](NC(=O)/C(C#N)=C/c1cccc(Br)n1)c1ccccc1 [Degrasyn (WP1130)] , is recorded ΔTm at 10 µM strictly lower than -0.3 °C?
condition met

Given Cc1c(F)cc(C(=O)NC2CC2)cc1-c1ccc(C(=O)NCC(C)(C)C)cn1 [Losmapimod (GW856553X)] , is recorded ΔTm at 10 µM strictly lower than -0.3 °C?
condition not met

Given COc1ccc2c(c1)c(C1=C(c3c[nH]c4ccccc34)C(=O)NC1=O)cn2CCCN(C)C [Go 6983] , is recorded ΔTm at 10 µM strictly lower than -0.3 °C?
condition not met

Given COc1cccc2cc(-c3nc([C@H]4CC[C@H](C(=O)O)CC4)n4ncnc(N)c34)[nH]c12 [OSI-027] , is recorded ΔTm at 10 µM strictly lower than -0.3 °C?
condition met

----------
Biological target: ZmDRIK1-K217-S514 (Zea mays, UniProt C0P4K9)
Construct: kinase domain, K217-S514
Test: biochemical
Conditions: read-out: dTm B, sheet ZmDRIK1-K217-S514;; DSF, Boltzmann fit, 0.1% DMSO
Counter-ions that a name gives are not always drawn.
readoutName: ΔTm at 10 µM (°C)
Numeric only. Scale: °C

Solved cases (2 shown):
compound: O=C1NC(=O)/C(=C/c2ccc3c(c2)OC(F)(F)O3)S1
displayUnit: °C
numericResult: -0.526

compound: Cc1cc(F)c(Nc2ncnc3cc(OCc4ccccc4)ccc23)cc1O [ZM 323881 HCl]
displayUnit: °C
numericResult: -0.146

Record `Cc1cc(O)c2c(c1)C(=O)c1cccc(O)c1C2=O` . Reported ΔTm at 10 µM: -0.229

Record CNC(=O)c1cc(Oc2ccc(NC(=O)Nc3cc(C(C)(C)C)nn3-c3ccc4ncccc4c3)c(F)c2)ccn1 [DCC-2036 (Rebastinib)] . Reported ΔTm at 10 µM: -0.422

Record `COc1cccc(-c2cc(=O)c3ccccc3o2)c1N` . Reported ΔTm at 10 µM: -0.33

----------
Biological target: ZmDRIK1-K217-P492 (Zea mays)
Construct: kinase domain, K217-P492
Assay: biochemical
Settings: read-out: dTm B, sheet ZmDRIK1-K217-P492;; DSF, Boltzmann fit, 0.1% DMSO
Where a name gives a salt, the structure may show the parent alone.
ΔTm at 10 µM values for the compounds below.
Numeric only. Scale: °C

compound: Cc1ccc(NC(=O)c2ccc(CN3CCN(C)CC3)cc2)cc1Nc1nc(-c2cccnc2)cs1
ΔTm at 10 µM [°C]: -0.773

compound: Nc1ccc(-c2ccc3ncc4ccc(=O)n(-c5cccc(C(F)(F)F)c5)c4c3c2)cn1
ΔTm at 10 µM [°C]: -0.531

compound: CCc1ccc(C=C2SC(=S)NC2=O)cc1
ΔTm at 10 µM [°C]: -1.02

Record `O=C(/C=C/c1ccc(O)c(O)c1)c1ccc(O)cc1O` . Reported ΔTm at 10 µM: 1.78

Record CCN(CC)CCNC(=O)c1c(C)[nH]c(/C=C2\C(=O)Nc3ccc(F)cc32)c1C [Sunitinib Malate] . Reported ΔTm at 10 µM: -0.864

Record Cn1cc(C2=C(c3cn(CCCSC(=N)N)c4ccccc34)C(=O)NC2=O)c2ccccc21 [Ro 31-8220 Mesylate] . Reported ΔTm at 10 µM: -1.24

Record CN1CCC(c2c(O)cc(O)c3c(=O)cc(-c4ccccc4Cl)oc23)C1CO (stereo not shown) . Reported ΔTm at 10 µM: -0.275
